The measurements presented in this section are drawn from the supplement of paper PMC8728848.

# Lookup of reported glycan array binding signal (z-score) keyed by entry
tgt: GlcNAc(b1-3)Gal(b1-4)GlcNAc(b1-3)Gal(b1-4)GlcNAc
protocol-description: glycan array binding signal (z-score within array); higher = stronger binding
conditions-used: glycan notation: IUPAC condensed, linker removed
This is one part of a sample in which the strongest signals are shown more often than they occur.
Number only, no unit.

binder	glycan array binding signal (z-score)
PP2A1 (Arabidopsis thaliana) (protein) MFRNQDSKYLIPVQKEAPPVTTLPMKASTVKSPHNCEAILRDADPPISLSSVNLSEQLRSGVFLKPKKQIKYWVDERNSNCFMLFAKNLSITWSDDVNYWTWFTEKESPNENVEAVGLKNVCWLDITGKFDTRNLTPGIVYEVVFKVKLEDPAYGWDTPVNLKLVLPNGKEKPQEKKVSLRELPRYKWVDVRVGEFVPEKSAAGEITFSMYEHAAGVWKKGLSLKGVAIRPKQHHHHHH	-0.708
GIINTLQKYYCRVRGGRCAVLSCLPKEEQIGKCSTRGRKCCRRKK [Beta-Defensin 3 (Homo sapiens), P81534]	-0.356
AICL (Homo sapiens), Q92478 (protein) MMTKHKKCFIIVGVLITTNIITLIVKLTRDSQSLCPYDWIGFQNKCYYFSKEEGDWNSSKYNCSTQHADLTIIDNIEEMNFLRRYKCSSDHWIGLKMAKNRTGQWVDGATFTKSFGMRGSEGCAYLSDDGAATARCYTERKWICRKRIH	-0.374
Dectin-1 CTLD (Mus musculus), Q6QLQ4 (protein) MKYHSHIENLDEDGYTQLDFSTQDIHKRPRGSEKGSRAPSSPWRPIAVGLGILCFVVVVVAAVLGALAFWRHNSGRNPEEKDNFLSRNKENHKPTESSLDEKVAPSKASQTTGGFSQSCLPNWIMHGKSCYLFSFSGNSWYGSKRHCSQLGAHLLKIDNSKEFEFIESQTSSHRINAFWIGLSRNQSEGPWFWEDGSAFFPNSFQVRNTVPQESLLHNCVWIHGSEVYNQICNTSSYSICEKEL	-0.18
PpFlo1 (Pichia pastoris) (protein) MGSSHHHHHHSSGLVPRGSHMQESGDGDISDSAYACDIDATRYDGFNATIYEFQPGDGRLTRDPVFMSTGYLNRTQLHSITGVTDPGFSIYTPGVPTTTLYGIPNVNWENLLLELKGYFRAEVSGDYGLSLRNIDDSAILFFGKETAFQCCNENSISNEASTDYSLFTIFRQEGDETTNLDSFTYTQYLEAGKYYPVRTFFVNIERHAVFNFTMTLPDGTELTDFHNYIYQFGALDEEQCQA	0.551

// moving on: another record for glycan array binding signal (z-score)
Please list glycan array binding signal (z-score) recorded for the binder ArathEULS3 TAP (Arabidopsis thaliana) (protein) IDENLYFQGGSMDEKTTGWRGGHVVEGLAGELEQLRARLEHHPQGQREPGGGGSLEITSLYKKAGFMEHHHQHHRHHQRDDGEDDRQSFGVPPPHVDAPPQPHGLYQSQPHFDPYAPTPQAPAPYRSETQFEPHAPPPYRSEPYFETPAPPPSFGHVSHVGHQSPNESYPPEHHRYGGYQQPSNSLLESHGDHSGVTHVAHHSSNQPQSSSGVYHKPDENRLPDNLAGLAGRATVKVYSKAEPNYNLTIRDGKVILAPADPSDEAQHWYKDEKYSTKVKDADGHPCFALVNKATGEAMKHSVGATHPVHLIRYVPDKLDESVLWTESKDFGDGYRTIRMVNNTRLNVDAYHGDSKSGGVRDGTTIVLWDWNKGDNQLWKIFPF 0.442
